molecular target: Glutamate receptor ionotropic, kainate; assay: Binding affinity at Ionotropic glutamate receptor kainate in rat cortical tissue by [3H]-kainic acid displacement.
pIC50: −log10 of the molar value.
assay-metric: pIC50

Below are worked cases with known answers.
[[record]]
compound = "O=C(O)[C@@H]1C[C@H]2C[C@@H](NCc3nn[nH]n3)CC[C@H]2CN1"
system_under_test = "Glutamate receptor ionotropic, kainate"
result = "< 4.00"

[[record]]
compound = "O=C(O)[C@@H]1C[C@H]2C[C@H](OCc3nn[nH]n3)CC[C@H]2CN1"
system_under_test = "Glutamate receptor ionotropic, kainate"
result = "< 4.00"


Data request: Recorded pIC50 for O=C(O)[C@@H]1NCC[C@H]2CC(CCc3nnn[nH]3)CC[C@H]21 (stereo partly drawn) , please?
Data returned: < 4.00

###

For each record, write down the corresponding pIC50.
target: Glutamate receptor ionotropic, AMPA (Rattus norvegicus, UniProt P19490+P19491+P19492+P19493); test: Binding affinity at Ionotropic glutamate receptor AMPA in rat cortical tissue by [3H]AMPA displacement.
pIC50: −log10 of the molar value.

[[record]]
molecule = "O=C(O)[C@H]1C[C@H]2CC(CCc3nnn[nH]3)CC[C@H]2CN1 (stereo partly drawn)"
result = "< 4.00"

[[record]]
molecule = "CN(Cc1nn[nH]n1)[C@H]1CC[C@H]2CN[C@H](C(=O)O)C[C@H]2C1"
result = "< 4.00"


Kindly consider the entry below.
Data request: Recorded pIC50 for O=C(O)[C@@H]1C[C@H]2C[C@@H](NCc3nn[nH]n3)CC[C@H]2CN1 , please?
Data returned: < 4.00

###

For each record, write down the corresponding IC50.
target: Glutamate receptor ionotropic, kainate; assay: Binding affinity at Ionotropic glutamate receptor kainate in rat cortical tissue by [3H]-kainic acid displacement.

Below are worked cases with known answers.
[[record]]
molecule = "O=CN(Cc1nn[nH]n1)[C@H]1CC[C@H]2CN[C@H](C(=O)O)C[C@H]2C1"
assay_metric = "IC50"
result = "> 100 µM"

[[record]]
molecule = "O=C(O)[C@H]1C[C@H]2CC(CCc3nnn[nH]3)CC[C@H]2CN1 (stereo partly drawn)"
assay_metric = "IC50"
result = "> 100 µM"


Kindly consider the entry below.
Data request: Recorded IC50 for O=C(O)C1Cc2cc(CCc3nnn[nH]3)ccc2CN1 (stereo not drawn) , please?
Data returned: > 10 µM

###

For each record, write down the corresponding pIC50.
target: Glutamate NMDA receptor; assay: Binding affinity at N-methyl-D-aspartate glutamate receptor in rat cortical tissue by [3H]-CGS- 19755 displacement.
pIC50: −log10 of the molar value.

Below are worked cases with known answers.
[[record]]
molecule = "CC(C[C@H]1CC[C@H]2CN[C@H](C(=O)O)C[C@H]2C1)c1nnn[nH]1 (some centres undefined)"
result = "< 4.00"

[[record]]
molecule = "O=C(O)[C@H]1C[C@H]2CC(CCc3nnn[nH]3)CC[C@H]2CN1 (some centres undefined)"
result = "< 5.00"

[[record]]
molecule = "O=CN(Cc1nn[nH]n1)[C@H]1CC[C@H]2CN[C@H](C(=O)O)C[C@H]2C1"
result = "< 4.00"


Kindly consider the entry below.
Data request: Recorded pIC50 for O=C(O)C1Cc2cc(CCc3nnn[nH]3)ccc2CN1 (centres undefined) , please?
Data returned: < 5.00
